Molecular target: recombinant soluble homotrimeric HA, A/Egypt/3300-NAMRU3/08 H5N1 (Influenza A virus A/Egypt/3300-NAMRU3/2008(H5N1))
Assay: microarray, transfection SN IgG, trimeric HA
Conditions: remark: other sources report otherwise
endpoint name: Trimeric HA Binding: RLU
I'd appreciate it if you wrote the number followed by its unit.

stdin: // Trimeric HA Binding: RLU lookup, key: TCN-523 (5248_A17) (antibody, V domains shown) VH: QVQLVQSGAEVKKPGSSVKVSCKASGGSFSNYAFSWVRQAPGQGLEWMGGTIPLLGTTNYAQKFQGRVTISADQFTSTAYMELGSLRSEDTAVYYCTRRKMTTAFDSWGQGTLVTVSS VL: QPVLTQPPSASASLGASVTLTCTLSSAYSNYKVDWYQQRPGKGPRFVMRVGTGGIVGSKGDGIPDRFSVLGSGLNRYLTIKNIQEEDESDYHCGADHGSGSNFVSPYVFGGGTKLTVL
stdout: 35500 RLU

stdin: Quick one: TCN-555 (5246_L16) (antibody, V domains shown) VH: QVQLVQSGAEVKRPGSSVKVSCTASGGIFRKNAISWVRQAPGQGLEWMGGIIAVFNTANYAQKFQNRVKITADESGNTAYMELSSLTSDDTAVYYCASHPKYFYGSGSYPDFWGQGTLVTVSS VL: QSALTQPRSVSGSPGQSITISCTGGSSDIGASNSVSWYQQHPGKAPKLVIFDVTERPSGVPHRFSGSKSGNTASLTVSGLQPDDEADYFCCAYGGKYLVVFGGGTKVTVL
stdout: 20000 RLU

stdin: Quick one: TCN-547 (5092_F11) (antibody, V domains shown) VH: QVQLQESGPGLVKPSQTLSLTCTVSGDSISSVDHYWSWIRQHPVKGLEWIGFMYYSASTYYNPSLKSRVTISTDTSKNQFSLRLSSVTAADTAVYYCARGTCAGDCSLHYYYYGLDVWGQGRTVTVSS VL: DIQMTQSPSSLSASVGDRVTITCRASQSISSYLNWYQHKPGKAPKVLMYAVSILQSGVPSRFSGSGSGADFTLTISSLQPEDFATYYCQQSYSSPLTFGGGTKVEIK
stdout: 16800 RLU
